The measurements presented in this section are drawn from patent US10363251B2.

Subject Of Test: TLR9 (Homo sapiens, UniProt Q9NR96)
Construct: expressed in transfected cells; host or cells: HEK293
Sequence (Q9NR96 26-1032): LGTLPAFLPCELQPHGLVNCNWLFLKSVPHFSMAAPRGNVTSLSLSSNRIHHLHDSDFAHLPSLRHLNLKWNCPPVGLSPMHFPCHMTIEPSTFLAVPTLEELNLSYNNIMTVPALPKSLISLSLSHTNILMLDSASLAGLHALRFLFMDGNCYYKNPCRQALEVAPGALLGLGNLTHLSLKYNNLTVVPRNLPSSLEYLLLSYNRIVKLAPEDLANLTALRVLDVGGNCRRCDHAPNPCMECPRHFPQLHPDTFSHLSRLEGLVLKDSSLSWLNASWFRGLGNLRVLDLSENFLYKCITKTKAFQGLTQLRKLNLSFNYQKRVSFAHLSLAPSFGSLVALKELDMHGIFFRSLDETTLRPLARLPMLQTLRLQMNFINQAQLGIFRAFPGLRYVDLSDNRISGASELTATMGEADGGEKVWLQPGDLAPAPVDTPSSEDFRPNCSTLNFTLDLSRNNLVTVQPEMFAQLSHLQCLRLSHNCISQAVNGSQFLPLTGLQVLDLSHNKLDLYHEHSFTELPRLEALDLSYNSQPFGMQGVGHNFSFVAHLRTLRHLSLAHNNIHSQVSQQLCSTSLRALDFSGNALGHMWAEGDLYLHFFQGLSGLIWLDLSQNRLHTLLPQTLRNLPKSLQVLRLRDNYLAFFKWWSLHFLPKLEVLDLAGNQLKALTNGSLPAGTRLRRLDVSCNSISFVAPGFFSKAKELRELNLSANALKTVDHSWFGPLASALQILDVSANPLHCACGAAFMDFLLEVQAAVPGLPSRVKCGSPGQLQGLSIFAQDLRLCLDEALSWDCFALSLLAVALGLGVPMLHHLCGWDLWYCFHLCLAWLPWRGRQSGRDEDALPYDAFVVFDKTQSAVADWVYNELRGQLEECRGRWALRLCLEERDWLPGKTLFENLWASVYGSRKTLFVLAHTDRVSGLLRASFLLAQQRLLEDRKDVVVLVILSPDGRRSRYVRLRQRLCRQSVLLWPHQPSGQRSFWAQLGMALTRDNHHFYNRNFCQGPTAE
Protocol: TLR9 screening of (+)-morphinan library, SEAP reporter in HEK293 cells expressing TLR9
Assay type: cell-based
Test Settings: HEK293, read-out: % Inhibition (mean), 10 μM; activator ODN2006
Exercise: state measured inhibition at 10 µM for each of the compounds provided.
Numbers only, in %.

Here are 4 compounds together with their reported answers.
| Compound | Value Units | Reported Value |
| --- | --- | --- |
| C=C1CC[C@]2(O)[C@@H]3Cc4ccc(O)c5c4[C@]2(CCN3CC2CC2)[C@@H]1O5 | % | 37 |
| C=CCN1CC[C@@]23c4c5ccc(OC)c4O[C@@H]2C(NC(C)=O)CC[C@@H]3[C@@H]1C5 (stereo partly drawn) | % | 25 |
| COC1=CC=C2[C@@H]3Cc4ccc(OC)c5c4[C@]2(CCN3CC2CC2)[C@@H]1O5 | % | 90 |
| COc1ccc2c3c1O[C@@H]1C(OC)(OC)CCC4[C@H](C2)N(CC2CC2)CC[C@]341 (stereo partly drawn) | % | 90 |

Would you mind giving inhibition at 10 µM for every compound in the list below?
1. COc1ccc2c3c1O[C@@H]1C(O)CC[C@]4(O)[C@H](C2)N(C)CC[C@@]314 (stereo partly drawn)
2. C=CCN1CC[C@@]23c4c5ccc(O)c4O[C@@H]2C(=O)CC[C@]3(OC)[C@@H]1C5

Marked response:
[4, 45]

Would you mind giving inhibition at 10 µM for every compound in the list below?
1. C=CCN1CC[C@@]23c4c5ccc(O)c4O[C@@H]2C(=O)CC[C@]3(O)[C@@H]1C5
2. COc1ccc2c3c1O[C@@H]1C(O)CC[C@]4(O)[C@H](C2)N(CC2CCC2)CC[C@@]314 (stereo partly drawn)
3. COc1ccc2c3c1O[C@@H]1C(=O)CC[C@]4(O)[C@H](C2)N(C)CC[C@@]314
4. C=CCN1CC[C@@]23CC(=O)C(OC)C[C@@H]2[C@@H]1Cc1ccc(OC)c(O)c13 (stereo partly drawn)
5. CN(C(=O)/C=C/c1ccoc1)[C@H]1CC[C@]2(O)[C@@H]3Cc4ccc(O)c5c4[C@]2(CC[N+]3([O-])CC2CC2)[C@@H]1O5 (stereo partly drawn)
6. COc1ccc2c(c1O)[C@@]13CCN(CC4CCC4)[C@@H](C2)C1CCC(=O)C3 (stereo partly drawn)

Marked response:
1: 31; 2: 18; 3: 25; 4: 36; 5: 91; 6: 92
